# Species on record: Homo sapiens
# experiment: Inhibition of human topoisomerase 2 assessed as decrease in pBR322 mobility on agarose gel at 10 uM by electrophoresis
Please enter MET where inhibition is greater than or equal to 70%, and NOT MET where it is lower.

Take a look at these entries with their results.
[
  {
    "structureNotation": "COc1ccc2c(c1)/C(=N\\OCCN1CCCC1)c1c-2c(O)nc2ccccc12",
    "categoryLabel": "NOT MET"
  },
  {
    "structureNotation": "COc1ccc2c(c1)/C(=N\\OCCCN(C)C)c1c-2cnc2ccccc12",
    "categoryLabel": "MET"
  },
  {
    "structureNotation": "COc1ccc2c(c1)/C(=N\\OCCN1CCCC1)c1c-2c(N2CCNCC2)nc2ccccc12",
    "categoryLabel": "MET"
  },
  {
    "structureNotation": "COc1ccc2c(c1)/C(=N\\OCCN1CCOCC1)c1c-2cnc2ccccc12",
    "categoryLabel": "NOT MET"
  },
  {
    "structureNotation": "COc1ccc2c(c1)/C(=N\\OCCCN(C)C)c1c-2c(N2CCNCC2)nc2ccccc12",
    "categoryLabel": "MET"
  }
]

In the following, a different molecule is considered.
Determine whether this molecule has inhibition no lower than 70%: COc1ccc2c(c1)/C(=N\OCCN(C)C)c1c-2c(N2CCNCC2)nc2ccccc12 MET
